Here, each record is paired with measured log10 IC50 data.
- Measured on: PCAF719-832 bromodomain (Homo sapiens (Human))
- Sequence (Q92831 719-832): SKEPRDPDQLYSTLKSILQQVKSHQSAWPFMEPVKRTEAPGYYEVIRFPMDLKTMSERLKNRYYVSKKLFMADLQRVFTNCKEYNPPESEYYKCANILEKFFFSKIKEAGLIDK
- Test details: PCAF AlphaLisa binding assay
- Test context: PCAF bromodomain 225 nM, biotinylated small molecule ligand 6 nM
Test readout: log10 IC50 (log10 of the value in nM)

Compound: C[C@@H](Nc1nn(C)c(=O)c2cccnc12)[C@@H](c1ccc(S(=O)(=O)c2ccccc2)cc1)N(C)C (single isomer, unassigned) [Example 74B]
log10 IC50: 3.36

Compound: CN(C)CCOc1nn(C)c(=O)c2ccccc12
log10 IC50: 2.65

Compound: CN1CC(Nc2nn(C)c(=O)c3cccnc23)C1
log10 IC50: 3.18

Compound: CNC(=O)c1ccc([C@@H]([C@H](C)Nc2nn(C)c(=O)c3cccnc23)N(C)C)cc1 (single isomer, unassigned)
log10 IC50: 1.70

Compound: CN(CCNc1nn(C)c(=O)c2ccccc12)C1COC1
log10 IC50: 2.90
